# System: NCI-H522 lung
# Assay Comment: NCI tumour cell line growth inhibition, 48 h
Provide the reported TGI of each item.
Provide only the numeric value, understood in µM.

Looking for the measured TGI of `Cc1cc2nc3c4cc(Cl)ccc4n(CCN(C)C)c3nc2cc1C` , can you help?
3.27

What does the data say about its TGI? Entry: `CCOc1ccc(S(=O)(=O)/N=C2\C=C(SCC(=O)O)C(=O)c3ccccc32)cc1`
6.63

Suppose we examine the molecule `CN1CCN(Cc2ccc(C(=O)Nc3cncc(C#Cc4cnc(N)c5ccccc45)c3)cc2C(F)(F)F)CC1` ; what TGI value has been reported?
4.26

Query (molecule): Oc1ccccc1C(c1cc2c(cc1O)OCO2)N1CCOCC1 (stereo not given) ; field requested: TGI
24.3

Fill blank: measured TGI of the molecule `Cc1[nH]c(/C=C2\C(=O)Nc3ccc(S(=O)(=O)Cc4c(Cl)cccc4Cl)cc32)c(C)c1C(=O)N1CCC[C@@H]1CN1CCCC1` is ____.
47.7

Find the recorded TGI belonging to O=C(O)c1ccc(NC(c2ccccc2)c2ccc3cccnc3c2O)cc1 (stereo not given) and report it.
55.8

====

# Test system: SF-268 CNS
# Assay Comment: NCI tumour cell line growth inhibition, 48 h
Attribute Measured: TGI

Which value of TGI has been reported for `CSc1nc(SC)c2c(CN=[N+]=[N-])c(Br)n(Cc3ccccc3)c2n1` in the records?
> 100 µM

Param item = `CN(C)CC(=O)N1CCC(c2ccc(NC(=O)c3ncc(C#N)[nH]3)c(C3=CCCCC3)c2)CC1` ; retrieve measured TGI.
24.2 µM

Please report the recorded TGI for `CCOc1ccc(S(=O)(=O)/N=C2\C=C(SCC(=O)O)C(=O)c3ccccc32)cc1` .
12.2 µM

# query: TGI of entry `COC1(C(=O)N2Cc3nc(Cl)nc(N[C@H](C)c4cc(N)cc(C(F)(F)F)c4)c3C2)CCOCC1`
49.1 µM

Entry `CNC(=O)c1ccccc1CC1(O)c2ccccc2Oc2ccccc21` has what TGI?
85.9 µM

Record request: TGI value, item `O=C(/C=C/c1ccccc1)/C=C/c1ccccc1O`
79.4 µM

// TGI lookup, key: CCOC(=O)c1cc(C2(O)CCN(Cc3ccccc3)C2=O)c(-c2cc(C)no2)[nH]1 (centres undefined)
> 100 µM

I have this compound here, `CN1CCN(CC#Cc2cccc(C(=O)c3cnn(-c4ccc(F)cc4)c3N)c2)CC1` , and I need its recorded TGI.
> 25 µM

What does the record list as TGI for `Cn1cc(NC(=O)c2cc(NC(=O)CCCCCCCCCCC(=O)Nc3cc(C(=O)Nc4cc(C(=O)NCCC(=N)N)n(C)c4)n(C)c3)cn2C)cc1C(=O)NCCC(=N)N` ?
> 100 µM

====

Exercise: for every item that follows, state its recorded TGI.
# System: SF-295 CNS
# Assay Comment: NCI tumour cell line growth inhibition, 48 h

Name the reported TGI value associated with the compound NC(CO)Cc1cnc[nH]1 (stereo unspecified)
> 100 µM

Fill in the blank: the reported TGI of `COc1cccc(/C=C/C(=O)c2cc3c(N)c(C(=O)Nc4ccccc4C)sc3nc2C)c1` is ____.
15.9 µM

Given the compound C=C1CCC2C(/C=C(\C)CCC1O)OC(=O)C2C (stereo unspecified) , what is its reported TGI?
> 100 µM

TGI lookup needed for CCCCCCCCCCCCC(=O)OC(c1cnco1)c1nc(C(O)CC(O)C(O)C(C)O)co1 (stereo unspecified) , thanks.
98.3 µM

Please look up its TGI: `COc1ncc(C=C(C#N)C#N)c(OC)n1`
> 100 µM

Using the record for `COc1ccc(C(=O)Nc2ncc(Cc3ccc(Cl)cc3)s2)cc1` , report its TGI.
1.97 µM

Record request: TGI value, item `CN1CCN(Cc2ccc(C(=O)Nc3cncc(C#Cc4cnc(N)c5ccccc45)c3)cc2C(F)(F)F)CC1`
3.46 µM

Item under review: CC(C)C(Sc1nc(-c2ccccc2)c(-c2ccccc2)[nH]1)C(=O)NNC(=S)Nc1ccccc1 (stereo unspecified) . Reported TGI?
35.5 µM

Consider the compound shown here: CCOC(=O)C(OCC1CC=CCC1)Sc1ccccc1 (stereo unspecified) What is its recorded TGI?
> 100 µM

Return reported TGI; argument: `Cc1ccc2c(c1)nc(N)n[n+]2[O-]`
> 100 µM

Requested field: TGI. Item: `Fc1cccc(COc2ccc(Nc3ncncc3C#Cc3ccccc3)cc2Cl)c1`
> 25 µM

Suppose we examine the compound `COc1ccc(NC(=O)Nc2n[nH]c3ccccc23)cc1` ; what TGI value has been reported?
> 100 µM

Find the recorded TGI belonging to `O=c1c2ccccc2[nH]c(=S)n1-c1ccc(N=Nc2cccc3c(O)cccc23)cc1` and report it.
> 100 µM

Need TGI, item `CCSc1nnc(CSc2nc(-c3ccccc3)c(-c3ccccc3)[nH]2)n1-c1ccccc1`
44.7 µM

GET /values?readout=TGI&item= COC1(C)CC2N(C(=O)c3ccccc3)N=C(c3ccccc3)CC2(C)O1 (stereo unspecified)
> 100 µM

May I ask what TGI has been recorded for `O=c1oc2ccccc2c(O)c1C(c1cc(OCc2ccccc2)cc(OCc2ccccc2)c1)c1c(O)c2ccccc2oc1=O` ?
24 µM

Endpoint output: TGI of CC(=O)OCC1OC(O[C@@H]2C[C@H]3C(C)(C)[C@H](OC(C)=O)CC[C@]3(C)[C@H]3CCC4=C([C@@H](C)C[C@@H](O)[C@H](O)C(C)(C)O)CC[C@@]4(C)[C@@]32C)C(O)C(O)C1O (stereo partly specified) . Value?
31.6 µM

Requested field: TGI. Item: `O=C(/C(=C(/Br)I)c1ccccc1)c1ccccc1`
69.6 µM

Which measured TGI value corresponds to `CC(C)(C)c1cc(O)c(O)c(C(C)(C)C)c1` ?
14.4 µM

Please report the recorded TGI for `O=C1O[C@@H](c2ccccc2)C[C@@H]1CN1CCOCC1` .
> 100 µM

Reported TGI, compound `CCn1c(-c2nonc2N)nc2c(C#CCN)ncc(OCCCN)c21` : ____
> 25 µM

====

# System: K-562 leukemia
# Assay Comment: NCI tumour cell line growth inhibition, 48 h
Could you please report measured TGI for the items listed next?

So what's the measured TGI for this one? `COc1cc(COC(=O)N[C@H](C(=O)O)C(C)(C)C)c([N+](=O)[O-])cc1OC`
> 100 µM

Field request: TGI | item: `COc1ccc2nc(-c3ccc(OCc4ccccc4)cc3)ccc2c1`
> 100 µM

Which measured TGI value corresponds to COC(=O)C(c1[nH]nc2ccccc12)C(C(=O)OC)c1[nH]nc2ccccc12 (centres undefined) ?
> 100 µM

Find the recorded TGI belonging to `COC(=O)C(=O)CC(=O)CCn1ncc(Cl)c(Cl)c1=O` and report it.
9.54 µM

TGI lookup needed for `Cn1cc(NC(=O)c2cc(NC(=O)CCCCCCCCCCC(=O)Nc3cc(C(=O)Nc4cc(C(=O)NCCC(=N)N)n(C)c4)n(C)c3)cn2C)cc1C(=O)NCCC(=N)N` , thanks.
> 100 µM

# input molecule: `C=CC(=O)N[C@H]1C=C(C)c2c(-c3cnc4ccccc4c3)c3c(N)ncnc3n2C1` ; wanted: its TGI
> 100 µM

Can you share its TGI? I mean this molecule: `O=C1/C(=C/c2ccc(F)cc2)CCOc2ccc([N+](=O)[O-])cc21`
> 100 µM

Fill blank: measured TGI of the molecule Cc1ccc2c(c1C)CC1(Cc3c(ccc4c3CCC4)C1=O)C2=O (centres undefined) is ____.
> 100 µM

Query (molecule): `COc1cc2ncn(-c3cc(OCc4ccccc4Cl)c(C(N)=O)s3)c2cc1OC` ; field requested: TGI
> 25 µM

Param item = `N#CCCN(c1ccc(C=Nc2cccc([N+](=O)[O-])c2)cc1)S(=O)(=O)c1ccccc1` ; retrieve measured TGI.
> 100 µM

Give its TGI value. Item: `Brc1cccc(-c2cc(-c3ccc4c(c3)OCCO4)[nH]n2)c1`
250 µM

Bench note: what TGI did CCOC(=O)C1=C(C)N(c2ccccc2)C2=C(C(=O)N(c3ccccc3)C2c2ccccc2)C1c1ccccc1 (centres undefined) show?
> 100 µM

Given Nc1nc(Cl)cc(NCC2(CO)CC(CCc3ccccc3)C2)n1 (centres undefined) , state its recorded TGI.
> 100 µM

Dear colleague, I am looking for the recorded TGI of the following molecule: `CCN1CCN(c2nc(NCCCNc3ccnc4cc(Cl)ccc34)c3ccccc3n2)CC1`
7.14 µM

Endpoint output: TGI of `O=C(NS(=O)(=O)Nc1ccc(Cl)cc1)OCc1ccc(Cl)cc1Cl` . Value?
> 100 µM

Requested read-out: TGI. Entry: CCOC(=O)c1cc(=C2\CCN(CC(C)CC)C2=S)/c(=C(/O)CC)[nH]1 (centres undefined)
37.8 µM

// lookup TGI for Cc1ccc(S(=O)(=O)N2CCN3C(=O)c4ccccc4C32c2ccc(F)cc2)cc1 (centres undefined)
> 100 µM

Consider the molecule CC1C(c2cc(C(C)(C)C)c(O)c(C(C)(C)C)c2)c2cc3c(cc2OC1N1CCOCC1)OCO3 (centres undefined) and give its measured TGI.
> 100 µM

Can you share its TGI? I mean this molecule: `COc1ccc(Nc2c(C#N)c3n(c4ccccc24)c2ccccc2[n+]3C)cc1OC`
> 20 µM

Could you share which TGI value was measured for `COc1ccc(Nc2[nH]c(C(C)=O)c(N)c2C(=S)Nc2ccccc2)cc1` ?
> 100 µM

Fill in: TGI of O=C1CC2C=CC(O)C(C1)C2 (centres undefined) is ___
> 100 µM

Request the reported TGI associated with `C[C@@H]1CC[C@@H]2[C@@H]1[C@H](OC(=O)/C=C/c1ccccc1)[C@]1(c3ccccc3)C[C@@H](OC(=O)CO)[C@@]2(C)O1`
> 100 µM

Param item = `O=C1NC2(CCCC2)C(=O)C12CCCC2` ; retrieve measured TGI.
> 100 µM

Can you share its TGI? I mean this molecule: `O=c1c2ccccc2[nH]c(=S)n1-c1ccc(N=Nc2cccc3c(O)cccc23)cc1`
> 100 µM

For the molecule shown here, `Cc1nn(-c2ccc(S(=O)(=O)[O-])cc2)c([O-])c1N=[N+](C)c1ccc(-c2ccc(N=Nc3ccc4c(S(=O)(=O)[O-])cc(S(=O)(=O)[O-])c(N)c4c3[O-])c([O-])c2)cc1[O-].[Cu+2].[Cu+2].[Na+]` , give the reported TGI.
> 100 µM

Name the recorded TGI for `CN1CCN(CC#Cc2cccc(C(=O)c3cnn(-c4ccc(F)cc4)c3N)c2)CC1` .
> 25 µM

Entry `c1cc2nnc1SCCSCCSc1ccc(nn1)SCCSCCS2` has what TGI?
> 100 µM

May I ask what TGI has been recorded for `COc1ccc(-c2cc(-c3cc(Cl)ccc3Cl)nc3[nH]c(-c4cc(F)c(Cl)cc4Cl)cc(=O)c23)cc1` ?
> 100 µM

// TGI lookup, key: COc1ccc(C2C(Cl)C(=O)N2NC(=O)c2ccc(NC(C)=O)cc2)cc1 (centres undefined)
> 100 µM

For `Cc1nn(-c2ccc(F)cc2)c2ncnc(Nc3ccc(NC(=O)Nc4ccc(Cl)c(C(F)(F)F)c4)cc3)c12` , what is its reported TGI?
> 100 µM

Entry `CCCCN(CC)c1nc(C)nc2c1c(C)c(C)n2-c1c(C)cc(C)cc1C` has what TGI?
29.8 µM

// TGI lookup, key: CCN(CC)CCOC(c1cc(OC)ccc1OC)c1ccc2n1-c1ccccc1OC2 (centres undefined)
23.5 µM

Item under review: `c1cc(-c2cnc(-c3ccc4c(c3)CCCO4)o2)ccn1` . Reported TGI?
22.8 µM

For the molecule shown here, `CCOC(=O)c1c(NC(=O)c2ccccc2)sc2c1CCCC2` , give the reported TGI.
> 100 µM

Look up TGI: O=C1CC2(C[C@@H]3CCCCCCCCC[C@@H](C3)C2)N1 (some centres undefined)
55.1 µM

# get_value(readout='TGI', item= `Nc1n[nH]c2ccc([C@@H]3Nc4ccc5[nH]ncc5c4[C@H]4[C@H]5CCC(C5)[C@H]43)cc12` )
> 100 µM

So what's the measured TGI for this one? `COc1cc(/C=C\[N+](=O)[O-])ccc1O`
10.8 µM

Item `CCCCCCCCCCCCCC(=S)NCCCC[C@H](NC(=O)OCc1ccccc1)C(=O)Nc1ccccc1` has what recorded TGI?
> 100 µM

Give its TGI value. Item: `Cc1ccc(-c2cc(N)n(-c3nc4c([nH]3)c(=O)n(C)c(=O)n4C)n2)cc1`
> 100 µM
